Target System: human GPR52 (Homo sapiens, UniProt Q9Y2T5)
Construct: expressed in transfected cells; host or cells: CHO(dhfr-) cells
Sequence (Q9Y2T5 whole entry): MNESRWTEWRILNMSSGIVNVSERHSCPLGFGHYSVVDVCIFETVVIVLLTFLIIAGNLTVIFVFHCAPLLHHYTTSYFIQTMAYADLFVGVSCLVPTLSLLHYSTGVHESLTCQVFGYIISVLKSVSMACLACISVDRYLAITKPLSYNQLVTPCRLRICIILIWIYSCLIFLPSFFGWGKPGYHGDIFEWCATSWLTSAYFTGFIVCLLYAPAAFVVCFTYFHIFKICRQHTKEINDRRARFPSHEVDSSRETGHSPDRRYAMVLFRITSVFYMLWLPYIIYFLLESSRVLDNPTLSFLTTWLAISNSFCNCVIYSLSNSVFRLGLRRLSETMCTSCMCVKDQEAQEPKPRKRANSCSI
Test Protocol: Increase of intracellular cAMP concentration in human GPR52-expressing CHO cell (AlphaScreen cAMP assay)
Assay type: cell-based
Protocol Conditions: CHO, 1µM test compound; 100% = cAMP with 1 µM Reference Example 79, 0% = DMSO; human GPR52-expressing CHO(dhfr-) cells, 37°C, 30 min; read-out: GPR52 agonist activity (%)
Measured Metric: activity at 1 µM (%)
Write it as a number; the unit % goes unstated.

IN: State activity at 1 µM (human GPR52 (Homo sapiens, UniProt Q9Y2T5)) of Cc1nn(-c2ccc(F)c3cc(Cc4cc(F)cc(Cl)c4)sc23)c(CO)c1C(=O)NCC(N)=O [Example 89] .
OUT: 99

IN: State activity at 1 µM (human GPR52 (Homo sapiens, UniProt Q9Y2T5)) of Cc1nc(-c2cccc3cc(Cc4cccc(C(F)(F)F)c4)sc23)sc1C(N)=O [Example 36] .
OUT: 96

IN: Give human GPR52 (Homo sapiens, UniProt Q9Y2T5) activity at 1 µM for the following compound: COCCNC(=O)c1c(C)nn(-c2cccc3cc(Cc4cccc(C(F)(F)F)c4)sc23)c1C [Example 51]
OUT: 102

IN: State recorded activity at 1 µM with human GPR52 (Homo sapiens, UniProt Q9Y2T5), entry Cc1nn(-c2cccc3oc(Cc4cccc(C(F)(F)F)c4)cc23)c(C)c1C(=O)NCC(N)=O [Example 74] , no comment.
OUT: 98

IN: Enter activity at 1 µM (test system human GPR52 (Homo sapiens, UniProt Q9Y2T5)) for Cc1nn(-c2ccc(F)c3cc(Cc4cccc(C(F)(F)F)c4)sc23)c(C)c1C(=O)NC1CC1 [Example 103]
OUT: 97

IN: Look up and report activity at 1 µM, with human GPR52 (Homo sapiens, UniProt Q9Y2T5) as system, for Cc1nn(-c2cccc3cc(Cc4cccc(C(F)(F)F)c4)sc23)c(CO)c1C(N)=O [Example 64]
OUT: 97

IN: Report the value of activity at 1 µM obtained on human GPR52 (Homo sapiens, UniProt Q9Y2T5) for Cc1c(C(N)=O)nc(-c2cccc3cc(Cc4cccc(C(F)(F)F)c4)sc23)n1C [Example 50] .
OUT: 79

IN: Give activity at 1 µM; test system human GPR52 (Homo sapiens, UniProt Q9Y2T5); compound Cc1nn(-c2ccc(F)c3cc(Cc4cc(F)cc(Cl)c4)sc23)c(CO)c1C(=O)NCCO [Example 90]
OUT: 104
